Parameter protein stability index: see the listing below.
- Assay Remarks: protein stability index of a GFP-peptide fusion (GPS, HEK-293T) (PSI 1-6); higher = more stable;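 also: 24-mer peptide tiles fused after GFP, lentivirally expressed, FACS-sorted into six equal bins by GFP/DsRed ratio, decoded by Illumina sequencing, PSI is the read-weighted mean bin number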
- Applied Conditions: treatment: MLN4924 1 uM, 8 h; c terminus: a fixed tail appended
Could you keep your reply to the number by itself?

Sample records with protein stability index:
>>> data_value("KAIKARGEVIHCKLRAMKELSEAA [STX11]")
3.6
>>> data_value("YVFFVLAVMEHAESKMYATSPYSD [PTPRD]")
3.28

Let us examine a further case.
Return the recorded protein stability index value; entry: ANAFQQEAQTSGKERLLLSAAVPA [CHIT1] 4.18

###

- Assay Remarks: protein stability index of a GFP-peptide fusion (GPS, HEK-293T) (PSI 1-6); higher = more stable
- Applied Conditions: treatment: DMSO; c terminus: a fixed tail appended
Output schema: class label derived from protein stability index. Mapping: bin A: < 3; bin B: ≥ 3 and < 4; bin C: ≥ 4

>>> class_name("LPCNPCATTNASGNSCGPCGTSQK [KRT34]")
"bin C"
>>> class_name("CFGLQPGCLLPDGSRMMAVAALVV [NLN]")
"bin A"
>>> class_name("SLCVLVSTVGKLCRLINEDVNEQV [CEP70]")
"bin B"
>>> class_name("DTFKVPKEMFTVGCCVFAFLVGLL [SLC6A17]")
"bin A"
>>> class_name("KAIKARGEVIHCKLRAMKELSEAA [STX11]")
"bin B"

State the band of TNLTVTMDQLQGLGSDYEQPLEVK [CDC25A] bin C

Which category does the recorded protein stability index put YESGYAFLPDLLIFQMVIICLMCV [SMG5] in? bin B

###

- Assay Remarks: protein stability index of a GFP-peptide fusion (GPS, HEK-293T) (PSI 1-6); higher = more stable
- Applied Conditions: treatment: DMSO; c terminus: a fixed tail appended
Quantity Name: protein stability index
The reply should be a number, written without any unit.

Field: example entries. Status: answers known.
>>> data_value("SEKRRDPPNGPNLPMATVDIKNPE [WASL]")
5.35
>>> data_value("PALLEATGGAAGAGGAGRGEDEEN [KCTD13]")
5.62
>>> data_value("HCLHSAGHSQPDGAYSSASSFSRP [DLX1]")
3.53
>>> data_value("AEKKREAKQRAKEAQERELRKREK [LRRC59]")
5.38
>>> data_value("LQDMLDGFIKKFVLCPECENPETD [EIF5]")
3.19
>>> data_value("SWVLSMLYGFLLTFGFITMTPQLF [CLPTM1]")
3.21
>>> data_value("LGLSRAQPVQSKPQKASAPAADPP [PDLIM7]")
4.71
>>> data_value("QHKTCMLNATSKFMEFYQDVKDWW [EDNRA]")
2.6

Please supply the value of reported protein stability index for the item GEVLSYLELAQFHNAHQLAAWCLH [RHOBTB1] 2.7

Please report protein stability index for the following sequence: PGEFSDASMSPDATKPSHWCSVAY [SMAD6] 3.07

###

- Assay Remarks: protein stability index of a GFP-peptide fusion (GPS, HEK-293T) (PSI 1-6); higher = more stable
- Applied Conditions: treatment: DMSO; c terminus: a fixed tail appended
Quantity Name: protein stability index
Could you keep your reply to the number by itself?

Answered cases to consult:
>>> data_value("LEFSLLSYAFGKFPTVVWTWWIMF [SOAT1]")
2.98
>>> data_value("YVFFVLAVMEHAESKMYATSPYSD [PTPRD]")
3.02

Give protein stability index for the following sequence: FKDEYKSENIKLREENEKLRLENS [CCDC89] 5.25

Supply protein stability index value. Item: MAEEQGRERDSVPKPSVLFLHPDL [ALG2] 4.36

Supply protein stability index value. Item: ETPQPSPPGGSGSEPYKLLPGAVA [HNF4A] 5.06

Answer with the recorded protein stability index for the sequence listed here: TRQKKNLPDSPLRFDGLPAVLGFP [TRIM15] 2.85

Annotate the sequence PLSSQPQAIVTEDKTDISSGRARQ [MLH1] with its measured protein stability index. 4.99

Fill in reported protein stability index for this entry: PTTGRVYESDSSNHCMLSPSSSGH [C18orf25] 4.24

###

- Assay Remarks: protein stability index of a GFP-peptide fusion (GPS, HEK-293T) (PSI 1-6); higher = more stable
- Applied Conditions: treatment: DMSO; c terminus: a fixed tail appended
Please use met whenever protein stability index is not below 3, and not met whenever it is.

>>> class_name("HIGNSTQATVRDAVVGRPSMDKKA [ATL3]")
"met"
>>> class_name("TVRGLHCMCTVGERLYVIGGNHFR [KLHL13]")
"not met"
>>> class_name("VNSNKVVMSGVKCSGTELSLAHCR [LOXL2]")
"met"

Determine whether measured protein stability index meets or exceeds 3 for VHLLLKKVLFALCALNALTTTVCL [FAM189A2] met

###

- Assay Remarks: protein stability index of a GFP-peptide fusion (GPS, HEK-293T) (PSI 1-6); higher = more stable
- Applied Conditions: treatment: DMSO; c terminus: a fixed tail appended
Measured protein stability index, listed per entry.
# answer = number (no unit)

>>> data_value("LKEELAYLKKNHEEEMNALRGQVG [KRT17]")
4.01
>>> data_value("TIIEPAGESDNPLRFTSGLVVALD [INTS4]")
3.07
>>> data_value("AQPNYIPTQQDVLRTRVKTTGIVE [GNAI1]")
4.19
>>> data_value("KLEWAIDEDELRKSLSELVDDKFG [PSD2]")
4.19
>>> data_value("VTTEQLGAKMTERGSVARPTQGPE [PXN]")
5.35

Now turn to the next sequence.
Please list protein stability index recorded for the sequence KPEEPPQNLLREKIMKLPLPESLK [PCMTD1] 4.57

###

- Assay Remarks: protein stability index of a GFP-peptide fusion (GPS, HEK-293T) (PSI 1-6); higher = more stable
- Applied Conditions: treatment: DMSO; c terminus: a fixed tail appended
Param threshold (4) applies to protein stability index; output True when value >= threshold, False when value < threshold.

Example entries begin here.
>>> class_name("LNEEQTLQEVPTGLDSISHDSANC [ETS2]")
"True"
>>> class_name("WLNKEKGIFKIEDSAQVARLWGIR [SPDEF]")
"False"
>>> class_name("REVALLRRLEAFEHPNVVRLMDVC [CDK4]")
"False"
>>> class_name("HQMGVVHRDLKPENLLLASKLKGA [CAMK2A]")
"False"
>>> class_name("NPSQKTGQALLTHLYQSSARRYAG [ELAVL3]")
"False"

Answer whether protein stability index of ANQLIDIISSDELNVRSEEQVFNA [KLHL20] is greater than or equal to 4. True

Does YGHPAGIDYKTTTILLDGRRVKLQ [RAB40B] have a reported protein stability index of at least 4? False

###

Listing of entries alongside the reported protein stability index.
- Assay Remarks: protein stability index of a GFP-peptide fusion (GPS, HEK-293T) (PSI 1-6); higher = more stable
- Applied Conditions: treatment: DMSO; c terminus: a fixed tail appended
Respond numerically, and do not add a unit to the figure.

>>> data_value("GGMLNFMMHDQRTGPAWNVLMWTM [SOAT2]")
2.49
>>> data_value("VTGEKEEPSRSASEADSEAGELRK [PPEF2]")
5.35
>>> data_value("NLEKTIFCLQKLISLHPFNPWNWG [C8orf76]")
2.53
>>> data_value("AKVKLVFVEDQAVVETVFFLTSRT [ZSWIM9]")
3.31

Please report protein stability index for the following sequence: NQYLYFLFAPTLIYRDSYPRNPTV [SOAT1] 3.26

Give the value of protein stability index reported for the following: EKFVFFIGSKNGGKTTIILRCLDR [DYNC2LI1] 3.27

Retrieve protein stability index measured for SLKEEHRAYDLLRAASENSQDALR [IKZF1] and print it. 4.32

Query protein stability index for CKKLSLELGGKNPAIIFEDANLDE [ALDH8A1] 4.4

Hello, please tell me recorded protein stability index for this one: VAETECRYALQLQQIQGLISSIEA [KRT13] 2.72

Identify protein stability index associated with the sequence ATFVDKKRDLLGALKYWKKAMNMR [FEM1C] 1.95

###

- Assay Remarks: protein stability index of a GFP-peptide fusion (GPS, HEK-293T) (PSI 1-6); higher = more stable
- Applied Conditions: treatment: DMSO; c terminus: a fixed tail appended
Quantity Name: protein stability index
Response field accepts a number only; no unit should be typed.

>>> data_value("QSIEYAGQQDQVKLHDFFSYLMDH [PPEF2]")
2.94
>>> data_value("SSFFFSGVFVGVISFGQLSDRFGR [SLC22A15]")
2.96
>>> data_value("HGSGSHPGPASGPGPDTGPDSELS [SPAG8]")
5.41

Tell me protein stability index reported for DFDLDLVPWESDIWDINNQICTVK [ATF6] 3.06

Specify measured protein stability index for EAIKNEMNVMLKSSPVDLVTATDQ [IMPA1] . 4.21

Supply recorded protein stability index for AMFRLEHGEADRSTLKKALPTLSH [YJU2B] here. 3.33

Find the measured protein stability index of DTMQNIESTIVELGSIFQQLAHMV [STX5] and report it. 2.47

Name the recorded protein stability index of the sequence listed here: PPPLPNHKYNTTSTSYSPLASLPL [PLAGL1] 3.29

Respond only with protein stability index recorded for LVFEHVDQDLRTYLDKAPPPGLPA [CDK4] 2.7

Name the recorded protein stability index of the sequence listed here: KVNSKKMLGKYNTPVSYRMAKTLV [ACSBG2] 1.81

Input LLVGRYPFHDSDPSALFSKIRRGQ [TRIB1] , output reported protein stability index. 2.22

Consider the sequence PKGRFERKRNPSRKKQHICDECGK [ZNF24] . State its measured protein stability index. 3.82

Return protein stability index for the following sequence: RGSKMFKLRQMRVEKFIYENHPDV [MYOZ1] 2.9

Supply recorded protein stability index for DGAEIAEKFVFFIGSKNGGKTTII [DYNC2LI1] here. 2.26
